test_system: human orexin-2 receptor (Homo sapiens (Human))
test_summary: FLIPR Ca2+ Flux Assay, hOX2R FLIPR
particulars: CHO cells, 70 pM Ala-6,12 human orexin-A agonist
value_kind: IC50 (µM)
The figure you give is taken to be in µM; do not add the unit.

# example entries with known answers
compound: COC(=O)c1c(C#N)ccnc1O[C@@H]1CC[C@@H](C)N(C(=O)c2c(C)cccc2-n2nccn2)C1 [Example 19]
test_system: human orexin-2 receptor (Homo sapiens (Human))
units_label: µM
IC50: 0.0169
//
compound: COC(=O)c1c(C#N)ccnc1O[C@@H]1CC[C@@H](C)N(C(=O)c2ccccc2-n2ncnn2)C1 [Example 25]
test_system: human orexin-2 receptor (Homo sapiens (Human))
units_label: µM
IC50: 0.007
//
compound: COC(=O)c1c(C#N)ccnc1O[C@@H]1CC[C@@H](C)N(C(=O)c2ccc(F)cc2-c2ncccn2)C1 [Example 22]
test_system: human orexin-2 receptor (Homo sapiens (Human))
units_label: µM
IC50: 0.0336

Moving on to the next compound.
Task: Query for human orexin-2 receptor (Homo sapiens (Human)): what IC50 does the record show for COC(=O)c1c(C#N)ccnc1O[C@@H]1CC[C@@H](C)N(C(=O)c2cc(F)ccc2-n2nccn2)C1 [Example 6] ?
Output: 0.0182

---

test_system: human orexin-2 receptor (Homo sapiens (Human), UniProt O43614)
Sequence (O43614 whole entry): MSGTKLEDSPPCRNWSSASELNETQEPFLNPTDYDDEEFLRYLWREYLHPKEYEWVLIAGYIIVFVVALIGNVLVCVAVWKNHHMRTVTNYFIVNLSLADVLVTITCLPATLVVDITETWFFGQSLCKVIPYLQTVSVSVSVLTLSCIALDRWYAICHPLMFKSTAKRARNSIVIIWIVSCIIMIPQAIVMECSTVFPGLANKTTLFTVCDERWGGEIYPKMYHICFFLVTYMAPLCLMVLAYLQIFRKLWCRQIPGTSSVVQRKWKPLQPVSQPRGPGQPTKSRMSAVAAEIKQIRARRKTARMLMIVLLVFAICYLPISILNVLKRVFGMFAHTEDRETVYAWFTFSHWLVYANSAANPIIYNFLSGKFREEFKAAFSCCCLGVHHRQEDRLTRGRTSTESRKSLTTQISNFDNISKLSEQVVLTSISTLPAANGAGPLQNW
test_summary: radioligand binding assay, hOX2R BIND
value_kind: pKi
# log scale: pKi equals minus log10 of the concentration in mol/L

Task: Please state recorded pKi (tested on human orexin-2 receptor (Homo sapiens (Human), UniProt O43614)) of `COC(=O)c1c(C#N)ccnc1O[C@@H]1CC[C@@H](C)N(C(=O)c2ccccc2-n2ncnn2)C1`
Output: 9.12

---

# IC50 annotations
test_system: human orexin-2 receptor (Homo sapiens (Human))
test_summary: FLIPR Ca2+ Flux Assay, hOX2R FLIPR
particulars: CHO cells, 70 pM Ala-6,12 human orexin-A agonist
Protocol: In a typical experiment the OX1 and OX2 receptor antagonistic activity of the compounds of the present invention was determined in accordance with the following experimental method. […] Within the Fluorescent Imaging Plate Reader (FLIPR, Molecular Devices), test compounds are added to the plate in a volume of 25 μl, incubated for 5 min and finally 25 μl of agonist is added. […]
Write down the numeric answer in nM and omit the unit.

Consider the worked cases shown below.
molecule: COC(=O)c1c(C#N)ccnc1O[C@@H]1CC[C@@H](C)N(C(=O)c2cccc(C)c2-n2nccn2)C1
units_label: nM
obs_value: 27.7

molecule: COC(=O)c1c(C#N)ccnc1O[C@@H]1CC[C@@H](C)N(C(=O)c2cc(C)ccc2-n2nccn2)C1
units_label: nM
obs_value: 22

molecule: COC(=O)c1c(C#N)ccnc1O[C@@H]1CC[C@@H](C)N(C(=O)c2ccccc2-c2noc(C)n2)C1
units_label: nM
obs_value: 6.5

molecule: COC(=O)c1c(C#N)ccnc1O[C@@H]1CC[C@@H](C)N(C(=O)c2ccc(F)cc2-n2nccn2)C1
units_label: nM
obs_value: 21.8

molecule: COC(=O)c1c(C#N)ccnc1O[C@@H]1CCC(C)N(C(=O)c2ccccc2-c2ncccn2)C1 (stereo partly shown)
units_label: nM
obs_value: 23.8

molecule: COC(=O)c1c(C#N)ccnc1O[C@@H]1CC[C@@H](C)N(C(=O)c2c(F)cccc2-c2nc(C)no2)C1
units_label: nM
obs_value: 38.8

Task: Form field: reported IC50 of `COC(=O)c1c(C#N)ccnc1O[C@@H]1CC[C@@H](C)N(C(=O)c2ccc(C)cc2-n2nccn2)C1`
Output: 24.3

Numbers sourced from patent US9586950B2.
